Answer each item with its documented amyloid nucleation score.
- PROTOCOL_SUMMARY: amyloid nucleation score (Sup35N fusion, yeast selection) (log enrichment); library NNK1; higher = more nucleation; inactive = no reads after selection;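 note: zero at mode of non-aggregating sequences after 7 days selection at 30°C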
Just the number, please, no unit after it.

// field: amyloid nucleation score; key: `RHTETSLASSARKPALNPT` ; value = 0.197

// field: amyloid nucleation score; key: `SHLTRDSILRVRVCWTNCVQ` ; value = -0.026

// field: amyloid nucleation score; key: `CRLFVFPF` ; value = -0.336

// field: amyloid nucleation score; key: `FRSVGVYAISNLYGHSRYFS` ; value = -0.533

// field: amyloid nucleation score; key: `YWILQV` ; value = 0.299

// field: amyloid nucleation score; key: `LTAIFSRIFNI` ; value = -0.997

// field: amyloid nucleation score; key: `YKGVGPIVIFIQWVYITVNN` ; value = 4.1

// field: amyloid nucleation score; key: `YNSTAIHNYENRRDLHQLYL` ; value = 0.139

// field: amyloid nucleation score; key: `SVRYYLLYHNFIMSSADKLS` ; value = 6.49

* * *

- PROTOCOL_SUMMARY: amyloid nucleation score (Sup35N fusion, yeast selection) (log enrichment); library NNK3; higher = more nucleation; inactive = no reads after selection
MEASURED_PROPERTY: amyloid nucleation score

Reference set (4 entries):
// field: amyloid nucleation score; key: `CISFPDDWRSHTI` ; value = inactive

// field: amyloid nucleation score; key: `NYTVLYGNSLSFFRSHLCRV` ; value = inactive

// field: amyloid nucleation score; key: `PLKGDTVSYCGV` ; value = inactive

// field: amyloid nucleation score; key: `VYVAYALFRRD` ; value = -0.333

Further cases:
// field: amyloid nucleation score; key: `CCLFMLFMRMRTHL` ; value = inactive

// field: amyloid nucleation score; key: `IFVCKRLMRGLVR` ; value = inactive

// field: amyloid nucleation score; key: `WCSSWSRILTQVACVRHRKW` ; value = 0.926

* * *

- PROTOCOL_SUMMARY: amyloid nucleation score (Sup35N fusion, yeast selection) (log enrichment); library NNK2; higher = more nucleation; inactive = no reads after selection
MEASURED_PROPERTY: amyloid nucleation score

Reference set (4 entries):
// field: amyloid nucleation score; key: `CTIRLECLLA` ; value = -0.428

// field: amyloid nucleation score; key: `AGEYDLIFYLDFYMGNEVIS` ; value = 2.29

// field: amyloid nucleation score; key: `YRWDHILDVGSSFVL` ; value = 3.61

// field: amyloid nucleation score; key: `NGITDV` ; value = -0.414

Further cases:
// field: amyloid nucleation score; key: `RVLRSETYDSFSL` ; value = -0.163

// field: amyloid nucleation score; key: `AMYLPWARCSISPTNLIFNL` ; value = -1.1

// field: amyloid nucleation score; key: `RWARQRAWTRLLNGE` ; value = 1.18

// field: amyloid nucleation score; key: `QDYTDHPGIIFSFRGCSRDT` ; value = inactive

// field: amyloid nucleation score; key: `YSCMVFSLGRVMELSGHMFG` ; value = inactive

// field: amyloid nucleation score; key: `LLVVCSNLQNKVCRRNPEVF` ; value = -1.79

// field: amyloid nucleation score; key: `AIPVYFVLLMSITPLQLVVM` ; value = 1.38
